Reported values of protein stability index for individual entries
B1: SEC22B (parent)
chain: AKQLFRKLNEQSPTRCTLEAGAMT

- Variants of: B1
- Assay comment: protein stability index of a GFP-peptide fusion (GPS, HEK-293T) (PSI 1-6); higher = more stable;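 note: lentivirally expressed fusions sorted by FACS into six bins by GFP to DsRed ratio, PSI derived from sequencing read proportions per bin multiplied by bin number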
- Recorded conditions: c terminus: a fixed tail appended
Assay endpoint: protein stability index

> print(dat)
    changes           assay.endpoint  numeric.result
 1     Q11V  protein stability index            1.48
 2      K7E  protein stability index            2.89
 3      A1L  protein stability index            2.07
 4     Q11I  protein stability index            1.71
 5     A22T  protein stability index            1.84
 6     G21R  protein stability index             2.4
 7     A20I  protein stability index            2.27
 8     E19M  protein stability index            2.15
 9      K7G  protein stability index            2.24
10     A20L  protein stability index            2.27
11     T17C  protein stability index             2.4
12     Q11D  protein stability index            2.44
13      L8D  protein stability index            3.66
14     R15A  protein stability index            3.03
15     E19Q  protein stability index            2.87
16     A20F  protein stability index            1.34
17      R6Y  protein stability index            2.15
18     G21A  protein stability index            1.96
19     T17R  protein stability index            2.69
20     L18D  protein stability index            3.92
21      R6H  protein stability index            2.46
22      L4G  protein stability index            2.94
23      K7P  protein stability index            3.33
24     T24W  protein stability index            2.19
25      N9I  protein stability index            2.13
26     G21E  protein stability index            2.56
27      K7Y  protein stability index            1.52
28      R6K  protein stability index            2.07
29      R6L  protein stability index            2.99
30     Q11A  protein stability index            1.77
31     C16Q  protein stability index            3.47
32     L18N  protein stability index            3.17
33     S12N  protein stability index            1.93
34      Q3D  protein stability index             2.3
35     L18V  protein stability index            2.78
36      N9S  protein stability index             1.8
37     C16D  protein stability index            3.93
38      K7R  protein stability index               2
39     E10S  protein stability index            2.89
40     T24E  protein stability index            2.09
41      F5K  protein stability index            3.47
42      K7T  protein stability index            2.54
43      K7M  protein stability index            1.83
44     T14A  protein stability index            1.68
45      L8P  protein stability index            2.82
46     R15M  protein stability index            2.71
